Experiment: Acute toxicity
Details: rat, in vivo; rats; single 500 mg./kg. oral dose; observed for 14 hours; read-out: Toxicity, dead animals (%)
Listed here: items and their measured mortality at 14 h.
Return type: number; implicit unit %.

CN(C)CCCN1c2ccccc2CCc2ccccc21 [Imipramine, reference compound] ... 80

Q: Please report the recorded mortality at 14 h for CCN(CC)CCCOc1ccc(C(O)(CC)c2cccc(Cl)c2)cc1 (stereo not drawn) [D] .
Result: 0

Q: Requested field: mortality at 14 h. Item: CCN(CC)CCOc1ccc(C(O)(CC)c2ccc(C(F)(F)F)cc2)cc1 (stereo not drawn) [C]
Result: 0
